- target or test system: STAT3 (Homo sapiens)
- Construct: This cell line is a clone created by using CRISPR-Cas9 to fuse HiBiT to the 3′ end of STAT3 in HeLa cells; host or cells: STAT3-HiBiT KI HeLa cell line (CRISPR-Cas9 knock-in clone)
- run description: HiBiT assay, STAT3 degradation in STAT3-HiBiT KI HeLa cells
- Assay type: cell-based
- measurement parameters: 24 h, @1 μM
parameter: Dmax at 1 µM

Would you please look over these solved cases?
1. CC(=O)N1CC[C@H]2CC[C@@H](C(=O)N[C@@H](CCC(N)=O)COc3cccc(CCCc4cn([C@H](C(=O)N5C[C@H](O)C[C@H]5C(=O)N[C@@H](C)c5ccc(-c6scnc6C)cc5)C5CCOCC5)nn4)c3Cl)N2C(=O)[C@@H](NC(=O)c2cc3cc(C(=O)P(=O)(O)O)ccc3[nH]2)C1; > 80%
2. CCS(=O)(=O)c1ccc(CNC(=O)[C@H](CCC(N)=O)NC(=O)[C@@H]2CC[C@@H]3CCN(C(=O)CCCCc4cn([C@@H](C(=O)N5C[C@H](O)C[C@H]5C(=O)N[C@H](C)c5ccc(-c6scnc6C)cc5)C5CCN(C)CC5)nn4)C[C@H](NC(=O)c4cc5cc(C(=O)P(=O)(O)O)ccc5[nH]4)C(=O)N32)cc1; > 80%

Note Dmax at 1 µM for the molecule shown: CCS(=O)(=O)c1ccc(CNC(=O)[C@H](CCC(N)=O)NC(=O)[C@@H]2CC[C@@H]3CCN(C(=O)CCCCCc4cn([C@H](C(=O)N5C[C@H](O)C[C@H]5C(=O)N[C@@H](C)c5ccc(-c6scnc6C)cc5)C(C)(C)C)nn4)C[C@H](NC(=O)c4cc5cc(C(=O)P(=O)(O)O)ccc5[nH]4)C(=O)N32)cc1
> 80%

====

Parameter: IC50. Scope: all listed entries.
- Tested on: SU-DHL-1 cells
- run description: CellTiter-Glo 2.0 cell viability assay, SU-DHL-1
- Type: cell-based
- measurement parameters: Homo sapiens, 96 h, 4 days

Please review the entries below; each comes with its answer.
1) CC(=O)N1CC[C@H]2CC[C@@H](C(=O)N[C@@H](CCC(N)=O)COc3cccc(CCCCNC(=O)C[C@H](NC(=O)[C@@H]4C[C@@H](O)CN4C(=O)[C@H](C4CCCCC4)n4cc(C5CC5)nn4)c4ccc(-c5scnc5C)cc4)c3Cl)N2C(=O)[C@@H](NC(=O)c2cc3cc(C(=O)P(=O)(O)O)ccc3[nH]2)C1; < 10 nM
2) Cc1ncsc1-c1ccc([C@H](C)NC(=O)[C@@H]2C[C@@H](O)CN2C(=O)[C@@H](n2cc(CCCCCCCCC(=O)N3CC[C@H]4CC[C@@H](C(=O)N[C@@H](CCC(N)=O)C(=O)NC(c5ccccc5)c5ccccc5)N4C(=O)[C@@H](NC(=O)c4cc5cc(C(=O)P(=O)(O)O)ccc5[nH]4)C3)nn2)C(C)(C)C)cc1; > 1000 nM

State, for SU-DHL-1 cells, measured IC50 of the compound listed here: Cc1ncsc1-c1ccc([C@H](C)NC(=O)[C@@H]2C[C@@H](O)CN2C(=O)[C@@H](n2cc(CCCCCC(=O)N3CC[C@H]4CC[C@@H](C(=O)N[C@@H](CCC(N)=O)C(=O)NC(c5ccccc5)c5ccccc5)N4C(=O)[C@@H](NC(=O)c4cc5cc(C(=O)P(=O)(O)O)ccc5[nH]4)C3)nn2)C(C)(C)C)cc1
> 1000 nM

====

- target or test system: STAT3 (Homo sapiens, UniProt P40763)
- Construct: This cell line is a clone created by using CRISPR-Cas9 to fuse HiBiT to the 3′ end of STAT3 in HeLa cells; host or cells: STAT3-HiBiT KI HeLa cell line (CRISPR-Cas9 knock-in clone)
- Sequence (P40763 whole entry): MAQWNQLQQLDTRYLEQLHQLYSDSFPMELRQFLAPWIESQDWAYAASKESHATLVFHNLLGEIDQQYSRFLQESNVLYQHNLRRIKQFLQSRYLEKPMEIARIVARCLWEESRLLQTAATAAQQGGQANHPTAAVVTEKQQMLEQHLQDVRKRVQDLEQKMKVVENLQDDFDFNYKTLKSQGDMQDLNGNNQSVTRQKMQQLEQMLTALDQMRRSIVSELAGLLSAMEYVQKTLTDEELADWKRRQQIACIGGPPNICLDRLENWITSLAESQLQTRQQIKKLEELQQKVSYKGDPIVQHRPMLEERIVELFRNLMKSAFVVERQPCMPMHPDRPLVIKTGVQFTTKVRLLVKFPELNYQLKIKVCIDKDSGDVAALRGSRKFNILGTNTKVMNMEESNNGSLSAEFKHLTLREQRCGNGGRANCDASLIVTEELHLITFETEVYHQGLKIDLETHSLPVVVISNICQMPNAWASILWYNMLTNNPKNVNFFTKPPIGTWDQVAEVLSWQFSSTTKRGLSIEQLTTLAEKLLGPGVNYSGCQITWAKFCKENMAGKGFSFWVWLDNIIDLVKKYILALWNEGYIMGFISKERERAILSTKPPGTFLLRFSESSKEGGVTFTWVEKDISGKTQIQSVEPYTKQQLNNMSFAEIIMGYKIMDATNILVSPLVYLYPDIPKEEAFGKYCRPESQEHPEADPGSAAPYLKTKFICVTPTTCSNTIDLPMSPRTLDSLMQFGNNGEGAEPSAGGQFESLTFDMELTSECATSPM
- run description: HiBiT assay, STAT3 degradation in STAT3-HiBiT KI HeLa cells
- Assay type: cell-based
- measurement parameters: 24 h, @1 μM
parameter: Dmax at 1 µM

Previously resolved entries follow.
1. CC(=O)N1CC[C@H]2CC[C@@H](C(=O)N[C@@H](CCC(N)=O)COc3cccc(CCCC(=O)N4CCC([C@@H](C(=O)N5C[C@H](O)C[C@H]5C(=O)N[C@@H](C)c5ccc(-c6scnc6C)cc5)n5cc(C6CC6)nn5)CC4)c3Cl)N2C(=O)[C@@H](NC(=O)c2cc3cc(C(=O)P(=O)(O)O)ccc3[nH]2)C1; 60 to 80%
2. CCS(=O)(=O)c1ccc(CNC(=O)[C@H](CCC(N)=O)NC(=O)[C@@H]2CC[C@@H]3CCN(C(=O)CCCCc4cn([C@H](C(=O)N5C[C@H](O)C[C@H]5C(=O)N[C@@H](CN5CCOCC5)c5ccc(-c6scnc6C)cc5)C(C)(C)C)nn4)C[C@H](NC(=O)c4cc5cc(C(=O)P(=O)(O)O)ccc5[nH]4)C(=O)N32)cc1; > 80%
3. Cc1ncsc1-c1ccc([C@H](C)NC(=O)[C@@H]2C[C@@H](O)CN2C(=O)[C@@H](n2cc(CCCc3cccc(OC[C@H](CCC(N)=O)NC(=O)[C@@H]4CC[C@@H]5CCN(C(=O)C6CCN(C)CC6)C[C@H](NC(=O)c6cc7cc(C(=O)P(=O)(O)O)ccc7[nH]6)C(=O)N54)c3Cl)nn2)C(C)(C)C)cc1; > 80%

Give Dmax at 1 µM for Cc1ncsc1-c1ccc([C@H](C)NC(=O)[C@@H]2C[C@@H](O)CN2C(=O)[C@@H](n2cc(CCCCC(=O)N3CC[C@H]4CC[C@@H](C(=O)N[C@@H](CCC(N)=O)COc5cccc(Cl)c5)N4C(=O)[C@@H](NC(=O)c4cc5cc(C(=O)P(=O)(O)O)ccc5[nH]4)C3)nn2)C(C)(C)C)cc1
> 80%

====

The compounds listed here are annotated with their DC50.
- target or test system: STAT3 (Homo sapiens)
- Construct: This cell line is a clone created by using CRISPR-Cas9 to fuse HiBiT to the 3′ end of STAT3 in HeLa cells; host or cells: STAT3-HiBiT KI HeLa cell line (CRISPR-Cas9 knock-in clone)
- run description: HiBiT assay, STAT3 degradation in STAT3-HiBiT KI HeLa cells
- Type: cell-based
- measurement parameters: 24 h, read-out: STAT3 Degradation (HeLa 24 h HiBit) DC50

The examples below pair each entry with its known result.
1. CC(=O)N1CC[C@H]2CC[C@@H](C(=O)N[C@@H](CCC(N)=O)COc3cccc(CCCCNC(=O)C[C@H](NC(=O)[C@@H]4C[C@@H](O)CN4C(=O)[C@@H](n4cc(C5CC5)nn4)C(C)(C)C)c4ccc(-c5scnc5C)cc4)c3Cl)N2C(=O)[C@@H](NC(=O)c2cc3cc(C(=O)P(=O)(O)O)ccc3[nH]2)C1; < 10 nM
2. COCCOCCOCCOCCC(=O)N1CC[C@H]2CC[C@@H](C(=O)N[C@@H](CCC(N)=O)COc3cccc(CCCc4cn([C@H](C(=O)N5C[C@H](O)C[C@H]5C(=O)N[C@@H](C)c5ccc(-c6scnc6C)cc5)C(C)(C)C)nn4)c3Cl)N2C(=O)[C@@H](NC(=O)c2cc3cc(C(=O)P(=O)(O)O)ccc3[nH]2)C1; < 10 nM
3. CCS(=O)(=O)c1ccc(CNC(=O)[C@H](CCC(N)=O)NC(=O)[C@@H]2CC[C@@H]3CCN(C(=O)CCCCc4cn([C@H](C(=O)N5C[C@H](O)C[C@H]5C(=O)N[C@@H](CCN5CCOCC5)c5ccc(-c6scnc6C)cc5)C(C)(C)C)nn4)C[C@H](NC(=O)c4cc5cc(C(=O)P(=O)(O)O)ccc5[nH]4)C(=O)N32)cc1; 100 to 1000 nM
4. CCS(=O)(=O)c1ccc(CNC(=O)[C@H](CCC(N)=O)NC(=O)[C@@H]2CC[C@@H]3CCN(C(=O)CCCCc4cn([C@@H](C(=O)N5C[C@H](O)C[C@H]5C(=O)N[C@H](C)c5ccc(-c6scnc6C)cc5)C5CCN(C(C)=O)CC5)nn4)C[C@H](NC(=O)c4cc5cc(C(=O)P(=O)(O)O)ccc5[nH]4)C(=O)N32)cc1; < 10 nM

Return the recorded DC50 value; entry: Cc1ncsc1-c1ccc([C@H](C)NC(=O)[C@@H]2C[C@@H](O)CN2C(=O)[C@@H](n2cc(CCCc3cccc(OC[C@H](CCC(N)=O)NC(=O)[C@@H]4CC[C@@H]5CCN(C(=O)C6CCN(C)CC6)C[C@H](NC(=O)c6cc7cc(C(=O)P(=O)(O)O)ccc7[nH]6)C(=O)N54)c3Cl)nn2)C(C)(C)C)cc1
10 to 100 nM

====

Property: pIC50; scope: individual molecules
- System: SU-DHL-1 cells
- run description: CellTiter-Glo 2.0 cell viability assay, SU-DHL-1
- Format: cell-based
- measurement parameters: Homo sapiens, 96 h, 4 days
pIC50: −log10 of the molar value.

Look over these answered cases.
1) CCS(=O)(=O)c1ccc(CNC(=O)[C@H](CCC(N)=O)NC(=O)[C@@H]2CC[C@@H]3CCN(C(=O)CCCCCCc4cn([C@H](C(=O)N5C[C@H](O)C[C@H]5C(=O)N[C@@H](C)c5ccc(-c6scnc6C)cc5)C(C)(C)C)nn4)C[C@H](NC(=O)c4cc5cc(C(=O)P(=O)(O)O)ccc5[nH]4)C(=O)N32)cc1 [Compound 15]; 7.00 to 8.00
2) Cc1ncsc1-c1ccc([C@H](C)NC(=O)[C@@H]2C[C@@H](O)CN2C(=O)[C@@H](n2cc(CC(=O)N3CC[C@H]4CC[C@@H](C(=O)N[C@@H](CCC(N)=O)C(=O)NC(c5ccccc5)c5ccccc5)N4C(=O)[C@@H](NC(=O)c4cc5cc(C(=O)P(=O)(O)O)ccc5[nH]4)C3)nn2)C(C)(C)C)cc1 [Compound 54]; < 6.00
3) Cc1ncsc1-c1ccc([C@H](C)NC(=O)[C@@H]2C[C@@H](O)CN2C(=O)[C@@H](n2cc(CCCCCCCC(=O)N3CC[C@H]4CC[C@@H](C(=O)N[C@@H](CCC(N)=O)C(=O)NC(c5ccccc5)c5ccccc5)N4C(=O)[C@@H](NC(=O)c4cc5cc(C(=O)P(=O)(O)O)ccc5[nH]4)C3)nn2)C(C)(C)C)cc1 [Compound 60]; < 6.00

Look up and state reported pIC50 for CC(=O)N1CC[C@H]2CC[C@@H](C(=O)N[C@@H](CCC(N)=O)COc3cccc(CCCc4cn([C@H](C(=O)N5C[C@H](O)C[C@H]5C(=O)N[C@@H](C)c5ccc(-c6scnc6C)cc5)C(C)(C)C)nn4)c3Cl)N2C(=O)[C@@H](NC(=O)c2cc3cc(C(=O)P(=O)(O)O)ccc3[nH]2)C1 [Compound 1]
> 8.00

Return pIC50 for the following molecule: CCS(=O)(=O)c1ccc(CNC(=O)[C@H](CCC(N)=O)NC(=O)[C@@H]2CC[C@@H]3CCN(C(=O)CCCCc4cn([C@@H](C(=O)N5C[C@H](O)C[C@H]5C(=O)N[C@H](C)c5ccc(-c6scnc6C)cc5)C5CCCCC5)nn4)C[C@H](NC(=O)c4cc5cc(C(=O)P(=O)(O)O)ccc5[nH]4)C(=O)N32)cc1 [Compound 20]
> 8.00

For the molecule CCS(=O)(=O)c1ccc(CNC(=O)[C@H](CCC(N)=O)NC(=O)[C@@H]2CC[C@@H]3CCN(C(=O)CCCCc4cn([C@@H](C(=O)N5C[C@H](O)C[C@H]5C(=O)N[C@H](C)c5ccc(-c6scnc6C)cc5)C5CCOCC5)nn4)C[C@H](NC(=O)c4cc5cc(C(=O)P(=O)(O)O)ccc5[nH]4)C(=O)N32)cc1 [Compound 24] , report pIC50.
> 8.00

Return reported pIC50. Input molecule: CC(=O)N1CC[C@H]2CC[C@@H](C(=O)N[C@@H](CCC(N)=O)COc3cccc(CCCc4cn([C@H](C(=O)N5C[C@H](O)C[C@H]5C(=O)N[C@@H](C)c5ccc(-c6scnc6C)cc5)C5CCOCC5)nn4)c3Cl)N2C(=O)[C@@H](NC(=O)c2cc3cc(C(=O)P(=O)(O)O)ccc3[nH]2)C1 [Compound 23]
> 8.00

Given CCS(=O)(=O)c1ccc(CNC(=O)[C@H](CCC(N)=O)NC(=O)[C@@H]2CC[C@@H]3CCN(C(=O)CCCCc4cn([C@H](C(=O)N5C[C@H](O)C[C@H]5C(=O)N[C@@H](CN5CCOCC5)c5ccc(-c6scnc6C)cc5)C(C)(C)C)nn4)C[C@H](NC(=O)c4cc5cc(C(=O)P(=O)(O)O)ccc5[nH]4)C(=O)N32)cc1 [Compound 16] , respond with its pIC50.
6.00 to 7.00
